- tgt: Human GRIN1 and human GRIN2B expressing HEK293 cells (Homo sapiens, UniProt Q13224)
- Construct: host or cells: HEK293
- Sequence (Q13224 27-1484, other chains not shown): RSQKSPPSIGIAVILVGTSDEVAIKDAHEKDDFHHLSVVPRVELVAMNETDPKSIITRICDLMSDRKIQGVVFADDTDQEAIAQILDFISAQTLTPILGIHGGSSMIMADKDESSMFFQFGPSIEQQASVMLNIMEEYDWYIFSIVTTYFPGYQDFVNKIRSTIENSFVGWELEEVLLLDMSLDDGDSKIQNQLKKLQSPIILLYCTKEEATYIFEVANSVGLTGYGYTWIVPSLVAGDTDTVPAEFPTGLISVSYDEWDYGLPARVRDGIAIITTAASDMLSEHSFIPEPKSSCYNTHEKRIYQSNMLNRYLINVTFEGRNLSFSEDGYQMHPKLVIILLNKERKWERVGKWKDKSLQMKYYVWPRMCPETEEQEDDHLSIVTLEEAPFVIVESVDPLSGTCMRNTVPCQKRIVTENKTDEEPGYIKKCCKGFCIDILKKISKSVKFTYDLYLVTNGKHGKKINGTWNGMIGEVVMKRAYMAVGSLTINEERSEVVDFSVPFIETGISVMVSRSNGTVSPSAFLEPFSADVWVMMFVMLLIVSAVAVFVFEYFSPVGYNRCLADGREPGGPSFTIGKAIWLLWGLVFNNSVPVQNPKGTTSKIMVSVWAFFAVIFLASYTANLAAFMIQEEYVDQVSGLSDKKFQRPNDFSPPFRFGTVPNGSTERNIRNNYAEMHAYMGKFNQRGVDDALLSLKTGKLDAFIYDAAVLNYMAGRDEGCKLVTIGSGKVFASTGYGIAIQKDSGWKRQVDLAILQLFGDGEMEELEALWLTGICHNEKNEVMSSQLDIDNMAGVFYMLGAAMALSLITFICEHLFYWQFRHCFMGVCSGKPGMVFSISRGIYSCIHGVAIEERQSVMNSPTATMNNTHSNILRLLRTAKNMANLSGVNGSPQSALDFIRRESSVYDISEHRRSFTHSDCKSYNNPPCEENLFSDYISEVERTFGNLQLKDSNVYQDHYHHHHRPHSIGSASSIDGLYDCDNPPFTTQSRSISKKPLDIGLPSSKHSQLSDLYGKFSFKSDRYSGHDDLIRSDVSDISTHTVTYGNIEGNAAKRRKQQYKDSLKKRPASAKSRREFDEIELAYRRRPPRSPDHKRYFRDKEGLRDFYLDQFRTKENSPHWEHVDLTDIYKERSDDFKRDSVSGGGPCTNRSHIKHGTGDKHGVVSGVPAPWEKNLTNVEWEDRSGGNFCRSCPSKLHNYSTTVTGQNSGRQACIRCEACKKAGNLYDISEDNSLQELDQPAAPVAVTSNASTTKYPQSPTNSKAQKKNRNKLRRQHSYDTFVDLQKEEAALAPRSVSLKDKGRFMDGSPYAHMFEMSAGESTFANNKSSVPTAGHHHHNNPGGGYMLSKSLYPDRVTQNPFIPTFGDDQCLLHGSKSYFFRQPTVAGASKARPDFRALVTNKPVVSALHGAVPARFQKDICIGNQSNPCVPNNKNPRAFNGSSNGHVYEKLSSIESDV
- experimental_details: NR2B Ca2+ flux assay
- Assay type: cell-based
- condition_parameters: 10 μM test compound, glutamic acid/glycine stimulated Fluo-4 fluorescence, FLIPR, read-out: inhibitory rate (@10 μM)
- Protocol: Experimental Example 1 NR2B Ca^2+ Flux Assay Human GRIN1 and human GRIN2B expressing HEK293 cells were purchased from ChanTest. […] Using FLIPR (Molecular Devices), 25 μL of an assay buffer containing […], 30 μM glycine was added, and the fluorescence signal was measured every 3 seconds for 5 min. […]
parameter_measured: inhibition at 10 µM (%)
# output: bare number, implied unit %

In: Request the reported inhibition at 10 µM associated with O=C(Cc1cccc2nccn12)Nc1ccc(OC(F)(F)F)c(F)c1 [Example 14]
Out: 92

In: Bench note: what inhibition at 10 µM did CCOc1ccc(NC(=O)Cc2cccc3nccn23)cc1F [Example 18] show?
Out: 91

In: Data request, read-out inhibition at 10 µM, for O=C(Cc1cccc2nccn12)Nc1ccc(F)c(F)c1 [Example 29]
Out: 88

All values here come from patent US10202376B2.
